Here the recorded inhibition at 1 µM is given for each entry.
subjectOfTest: Pim-1 (Homo sapiens (Human), UniProt P11309)
Sequence (P11309 whole entry): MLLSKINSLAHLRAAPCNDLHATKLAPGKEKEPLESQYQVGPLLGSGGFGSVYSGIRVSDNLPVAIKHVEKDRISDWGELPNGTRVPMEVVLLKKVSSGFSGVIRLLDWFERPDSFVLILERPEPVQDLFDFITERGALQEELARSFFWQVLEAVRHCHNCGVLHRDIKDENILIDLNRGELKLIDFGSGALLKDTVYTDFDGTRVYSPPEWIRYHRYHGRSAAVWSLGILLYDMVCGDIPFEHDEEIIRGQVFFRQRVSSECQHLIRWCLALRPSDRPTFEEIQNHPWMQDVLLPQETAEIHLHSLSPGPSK
procedureText: ADP-Glo Kinase Assay, Pim-1
Assay type: biochemical
assayContext: 1 μM compound; read-out: Pim-1 % INH (1 μM)

CCn1c(NC2CCCCC2N)nc2c([N+](=O)[O-])c(Br)c(Br)cc21 (stereo not shown) [Example 22L] | 80%
NCCCNc1nc2c([N+](=O)[O-])c(Br)c(Br)cc2[nH]1 | > 95%
CC(C)n1c(NCCOCCN)nc2c([N+](=O)[O-])c(Br)c(Br)cc21 [Example 22J] | > 95%

*Q* Please give the documented inhibition at 1 µM of CC(C)n1c(NC2CCNC2)nc2c(C#N)c(Br)c(Br)cc21 (stereo not shown)
*A* 83%

*Q* Please give the documented inhibition at 1 µM of CN[C@@H]1CCN(c2nc3c(C#N)c(Br)c(Br)cc3n2C(C)C)C1
*A* > 95%

*Q* Please give the documented inhibition at 1 µM of CCn1c(Nc2ccccc2N)nc2c([N+](=O)[O-])c(Br)c(Br)cc21 [Example 22N]
*A* 82%

*Q* Please give the documented inhibition at 1 µM of O=[N+]([O-])c1c(Br)c(Br)cc2c1nc(C1CCNCC1)n2CC1CCNCC1 [Example 27A]
*A* 56%
